Origin of values: paper doi:10.1101/2025.06.07.658458v1

Target Of Assay: CagFbFP (Q89E variant: LSSFbFP) (Chloroflexus aggregans, UniProt B8GAY9, C85A/Q89E)
Construct: C85A background inferred from printed I52V-A85Q and known biology
Sequence (B8GAY9 47-153 C85A/Q89E): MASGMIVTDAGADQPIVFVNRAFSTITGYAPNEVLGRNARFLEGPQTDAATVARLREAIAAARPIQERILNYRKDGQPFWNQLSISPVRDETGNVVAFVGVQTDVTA
Experiment Notes: chromophore dissociation constant measurement, details in cited reference; crystal structure of complex
Parameter Measured: Kd (µM)
Give bare numbers, in µM.

{"Molecule": "Cc1cc2nc3c(=O)[nH]c(=O)nc-3n(C[C@H](O)[C@H](O)[C@H](O)COP(=O)(O)O)c2cc1C [FMN, flavin mononucleotide]", "Unit Abbrev": "µM", "Kd": 0.36}

Below: the item to evaluate.
// query Kd value for entry `Cc1cc2nc3[nH]c(=O)[nH]c(=O)c3nc2cc1C` 0.9
